Entry source: patent US9694015B2

Tested on: TNF-α
Assay: LPS-stimulated hPBMC cytokine/chemokine production: TNF-α
Type: cell-based
Settings: Homo sapiens
reported metric: pIC50
To interpret pIC50, take it as minus log10 of a concentration measured in moles per litre.

Some compounds with known pIC50 results, for comparison:
>  <compound>
O=C1CC[C@@H](N2Cc3c(OCc4ccc(CN5CCOCC5)cc4)cccc3C2=O)C(=O)N1

>  <pIC50>
8.02

$$$$
>  <compound>
O=C1CCC(N2Cc3c(OCc4ccc(CN5CCOCC5)cc4)cccc3C2=O)C(=O)N1 (stereo not drawn)

>  <pIC50>
8.74

$$$$
>  <compound>
O=C1CCC(N2Cc3c(OCc4ccc(OCCN5CCOCC5)cc4)cccc3C2=O)C(=O)N1 (stereo not drawn)

>  <pIC50>
9.02

$$$$
>  <compound>
O=C1CCC(N2Cc3c(OCc4ccc(CCN5CCOCC5)cc4)cccc3C2=O)C(=O)N1 (stereo not drawn)

>  <pIC50>
9.10

$$$$
>  <compound>
O=C1CC[C@H](N2Cc3c(OCc4ccc(CN5CCOCC5)cc4)cccc3C2=O)C(=O)N1

>  <pIC50>
9.23

$$$$
>  <compound>
Nc1cccc2c1C(=O)N(C1CCC(=O)NC1=O)C2=O (stereo not drawn) [pomalidomide, reference compound]

>  <pIC50>
7.48

$$$$
>  <compound>
O=C1CCC(N2Cc3c(OCc4ccc(OCCN5CCCC5)cc4)cccc3C2=O)C(=O)N1 (stereo not drawn)

>  <pIC50>
9.28

$$$$

Now for a further compound.
## Input Identify the measured pIC50 of Nc1cccc2c1CN(C1CCC(=O)NC1=O)C2=O (stereo not drawn) [lenalidomide, reference compound] for TNF-α.
## Output 6.66
